Attribute: inhibition
# measured-on: Mitogen-activated protein kinase 14 (Homo sapiens) (UniProt Q16539)
# Sequence (Q16539 whole entry): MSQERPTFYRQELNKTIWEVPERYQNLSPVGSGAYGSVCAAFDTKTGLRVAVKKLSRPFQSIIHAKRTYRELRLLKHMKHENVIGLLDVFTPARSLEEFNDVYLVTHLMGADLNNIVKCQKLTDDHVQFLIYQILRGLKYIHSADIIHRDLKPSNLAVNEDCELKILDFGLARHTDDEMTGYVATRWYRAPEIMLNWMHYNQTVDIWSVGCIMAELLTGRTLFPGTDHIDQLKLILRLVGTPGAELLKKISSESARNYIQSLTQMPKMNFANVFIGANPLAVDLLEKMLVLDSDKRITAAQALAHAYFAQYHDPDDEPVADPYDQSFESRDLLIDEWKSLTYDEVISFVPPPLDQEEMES
# settings: at 1 µM;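 further: values are mean percent inhibition of p38alpha kinase activity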
measurement-kind: inhibition (%)

* O=C1NC(=O)C(c2cccc(Cl)c2)=C1Nc1ccc(O)c(Cl)c1 | 8.66
* COc1ccc(-c2nn3ncccc3c2-c2ccnc(Nc3ccc(Cl)c(C(F)(F)F)c3)n2)cc1 | 36.1
* CN1CCC(C(=O)Nc2n[nH]c3nnc(-c4ccccc4)cc23)CC1 | 5.41
* CS(=O)(=O)CCNCc1ccc(-c2ccc3ncnc(Nc4ccc(OCc5ccccc5)c(Cl)c4)c3c2)o1 | 3.25
* COC(=O)Nc1nc2cc(Oc3ccc(NC(=O)Nc4cccc(C(=O)O)c4)cc3)ccc2[nH]1 | 1.12
* CC(=O)Nc1cccc(C#Cc2cncnc2Nc2ccc(OCc3cccc(F)c3)c(Cl)c2)n1 | -1.8
* COc1cc2ncn(-c3cc(O[C@@H](C)c4ccccc4Cl)c(C(N)=O)s3)c2cc1OC | 7.39
* CC1=C(C(=O)Nc2ccc3[nH]ncc3c2)C(c2ccc3ccccc3c2)CC(=O)N1 (stereo not drawn) | 5.06
* COc1cccc(-n2ncc3c(N/N=C/c4cccc(F)c4)ncnc32)c1 | 5.39
* CCCN1CCC(Oc2cc(Nc3nc(Nc4cccc(F)c4C(N)=O)c4cc[nH]c4n3)c(OC)cc2Cl)CC1 | 3.85
* NS(=O)(=O)c1cccc(-c2ccc3c(NC(=O)C4CC4)n[nH]c3c2)c1 | 9.34
* CCn1c(-c2nonc2N)nc2cncc(C(=O)N3CCNCC3)c21 | 20.5
* CCn1c(-c2nonc2N)nc2cnc(Oc3cccc(NC(=O)c4ccc(OCCN5CCOCC5)cc4)c3)cc21 | 5.87
* Cc1cccc(-c2n[nH]cc2-c2ccc3ncccc3n2)n1 | 12
* Nc1ncnc2occ(-c3ccc(NC(=O)Nc4cc(C(F)(F)F)cc(C(F)(F)F)c4)cc3)c12 | 11
* COc1cc2ncn(-c3cc(O[C@H](C)c4ccccc4Cl)c(C(N)=O)s3)c2cc1OC | 6.35
* CS(=O)(=O)CCN(CC#N)Cc1ccc(-c2ccc3ncnc(Nc4ccc(OCc5cccc(F)c5)c(Cl)c4)c3c2)o1 | 3.94
* c1cnn2ncc(-c3ccnc(Nc4ccc5c(c4)OCCO5)n3)c2c1 | 13.3
* CCn1c(-c2nonc2N)nc2c(C#CC(C)(C)O)nc(CN3CCCC3)cc21 | -0.47
* Cc1cc(O)cc(C)c1/C=C/c1cncc(-c2nn[nH]n2)c1 | 12.6
* N#Cc1c(NC(=O)c2cccc3ccccc23)sc2c1CCCC2 | 5.23
* Fc1cccc(COc2ccc(Nc3ncnc4cc(-c5ccc[nH]5)sc34)cc2Cl)c1 | 4.89
* COc1ccc(-c2coc3ncnc(N)c23)cc1 | 13.4
* NCc1ccc(-c2nc(-c3ccc(Cl)c(O)c3)c(-c3ccncc3)[nH]2)cc1 | 77.1
* Nc1nc(-c2ccc3c(c2)C(=Cc2cc(Br)c(O)c(Br)c2)C(=O)N3)cs1 | -0.33
* Fc1cccc(COc2ccc(Nc3ncnc4sc(-c5cccs5)cc34)cc2Cl)c1 | 1.59
* O=C(Nc1n[nH]c2nc(-c3ccco3)c(Br)cc12)C1CC1 | 6.49
* NC(=O)c1ccc(-c2nc(-c3ccccn3)c(-c3ccc4c(c3)OCO4)[nH]2)cc1 | 15.5
* NC(=O)c1cccc(Nc2nccc(Nc3cccc4[nH]ncc34)n2)c1 | 2.87
* O=C1Nc2ccc(C(=O)c3ccco3)cc2C1=Cc1cc(Cl)c(O)c(Cl)c1 | 6.71
* COc1cc(C)c(NC(=O)CN(C)C)cc1Nc1nc(Nc2cccc(F)c2C(N)=O)c2cc[nH]c2n1 | 5.59
* COc1cc2c(cc1Nc1nc(N3CCc4ccccc43)c3cc[nH]c3n1)N(C(=O)CN(C)C)CC2 | 3.7
* [O-][S+]1CCN(Cc2ccc(-c3ccc4ncnc(Nc5ccc(OCc6ccccc6)c(F)c5)c4c3)o2)CC1 | 8.77
